Values from patent US8435978B2

The following compounds are shown together with reported inhibition at 10 µM values.
Biological target: B1R receptor of the rat (Rattus norvegicus)
Construct: host or cells: CHO K1 cells (Chinese hamster ovary), stably transfected
Sequence (P97583 whole entry): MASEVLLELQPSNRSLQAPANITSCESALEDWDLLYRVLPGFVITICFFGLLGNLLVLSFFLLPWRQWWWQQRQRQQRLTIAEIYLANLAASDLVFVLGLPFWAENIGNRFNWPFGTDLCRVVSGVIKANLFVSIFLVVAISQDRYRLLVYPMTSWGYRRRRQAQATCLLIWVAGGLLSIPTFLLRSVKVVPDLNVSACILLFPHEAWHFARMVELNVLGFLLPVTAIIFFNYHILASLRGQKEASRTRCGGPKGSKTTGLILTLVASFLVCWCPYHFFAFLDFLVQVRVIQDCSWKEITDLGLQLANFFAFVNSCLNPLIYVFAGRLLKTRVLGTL
Assay: Functional study on the bradykinin receptor 1 (B1R), FLIPR Ca2+ assay, rB1R cells
Type: cell-based
Conditions: CHO-K1, test substance 10 μM, agonist Des-Arg9-bradykinin 100 nM, % inhibition compared with the maximum achievable inhibition, read-out: B1R Antagonism, rat [10 μM] % Inhibition
Structures can show the parent of a compound that is named as a salt.
// note: answer is a bare numeric in %

Example entries begin here.
compound	inhibition at 10 µM [%]
COc1cc(OC)cc(N2CCN(C(=O)COCC3CCCN3S(=O)(=O)c3c(C)cc(OC)cc3C)CC2)c1 (stereo not shown)	97.9
COc1cc(C)c(S(=O)(=O)N2CCCCC2COCC(=O)N2CCC(N3CCC(F)CC3)CC2)c(C)c1 (stereo not shown)	96.3
CN1CCC(N2CCN(C(=O)COCC3CCCCN3S(=O)(=O)c3cccc4cnccc34)CC2)CC1 (stereo not shown) [Example 176, dihydrochloride]	36.5
COc1cc(C)c(S(=O)(=O)N2CCCCC2COCC(=O)N2CCN(c3ccc(Cl)c(Cl)c3)CC2)c(C)c1 (stereo not shown)	98.8
CN(C)CCCN1CCN(C(=O)COCC2CCCN2S(=O)(=O)c2c(Cl)cc(C(F)(F)F)cc2Cl)CC1 (stereo not shown)	92.9
O=C(COCC1CCCCN1S(=O)(=O)c1c(Cl)cccc1Cl)N1CCC(N2CCCC2)CC1 (stereo not shown)	99.3

IN: // fetch B1R receptor of the rat (Rattus norvegicus) inhibition at 10 µM for COc1cc(C)c(S(=O)(=O)N2CCCCC2COCC(=O)N2CCNCC2)c(C)c1 (stereo not shown) [Example 102, hydrochloride]
OUT: 100

###

Biological target: human B1R receptor (Homo sapiens)
Construct: host or cells: CHO K1 cells (Chinese hamster ovary), stably transfected
Sequence (P46663 1-353): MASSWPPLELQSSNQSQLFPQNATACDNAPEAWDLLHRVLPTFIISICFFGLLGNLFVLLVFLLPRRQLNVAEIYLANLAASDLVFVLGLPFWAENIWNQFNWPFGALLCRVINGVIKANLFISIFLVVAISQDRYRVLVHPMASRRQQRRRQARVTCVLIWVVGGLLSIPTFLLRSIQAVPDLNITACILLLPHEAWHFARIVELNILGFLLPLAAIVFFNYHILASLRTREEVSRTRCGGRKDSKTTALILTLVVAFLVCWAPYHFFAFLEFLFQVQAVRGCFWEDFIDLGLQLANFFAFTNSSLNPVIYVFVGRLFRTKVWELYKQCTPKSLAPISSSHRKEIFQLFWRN
Assay: Functional study on the bradykinin receptor 1 (B1R), FLIPR Ca2+ assay, hB1R cells
Format: cell-based
Conditions: CHO-K1, test substance 10 μM, agonist Lys-Des-Arg9-bradykinin 0.5 nM, % inhibition compared with the maximum achievable inhibition, read-out: B1R Antagonism, human [10 μM] % Inhibition
Counter-ions that a name gives are not always drawn.
Catalogue of inhibition at 10 µM values

compound	study_target	inhibition at 10 µM
COc1cc(C)c(S(=O)(=O)N2Cc3ccccc3CC2COCC(=O)N2CCCCC2Cc2cccc(C)n2)c(C)c1C (stereo not drawn)	human B1R receptor (Homo sapiens)	85.5%

Then this compound:
IN: Would you kindly share the measured inhibition at 10 µM for COc1cc(C)c(S(=O)(=O)N2CCCCC2COCC(=O)N2CCNCC2)c(C)c1 (stereo not drawn) [Example 102, hydrochloride] ?
OUT: 104%
